All values here come from patent US20070149535A1.

- system: EphA2 (Homo sapiens, UniProt P29317)
- Construct: expressed in transfected cells; host or cells: yeast
- Sequence (P29317 24-976): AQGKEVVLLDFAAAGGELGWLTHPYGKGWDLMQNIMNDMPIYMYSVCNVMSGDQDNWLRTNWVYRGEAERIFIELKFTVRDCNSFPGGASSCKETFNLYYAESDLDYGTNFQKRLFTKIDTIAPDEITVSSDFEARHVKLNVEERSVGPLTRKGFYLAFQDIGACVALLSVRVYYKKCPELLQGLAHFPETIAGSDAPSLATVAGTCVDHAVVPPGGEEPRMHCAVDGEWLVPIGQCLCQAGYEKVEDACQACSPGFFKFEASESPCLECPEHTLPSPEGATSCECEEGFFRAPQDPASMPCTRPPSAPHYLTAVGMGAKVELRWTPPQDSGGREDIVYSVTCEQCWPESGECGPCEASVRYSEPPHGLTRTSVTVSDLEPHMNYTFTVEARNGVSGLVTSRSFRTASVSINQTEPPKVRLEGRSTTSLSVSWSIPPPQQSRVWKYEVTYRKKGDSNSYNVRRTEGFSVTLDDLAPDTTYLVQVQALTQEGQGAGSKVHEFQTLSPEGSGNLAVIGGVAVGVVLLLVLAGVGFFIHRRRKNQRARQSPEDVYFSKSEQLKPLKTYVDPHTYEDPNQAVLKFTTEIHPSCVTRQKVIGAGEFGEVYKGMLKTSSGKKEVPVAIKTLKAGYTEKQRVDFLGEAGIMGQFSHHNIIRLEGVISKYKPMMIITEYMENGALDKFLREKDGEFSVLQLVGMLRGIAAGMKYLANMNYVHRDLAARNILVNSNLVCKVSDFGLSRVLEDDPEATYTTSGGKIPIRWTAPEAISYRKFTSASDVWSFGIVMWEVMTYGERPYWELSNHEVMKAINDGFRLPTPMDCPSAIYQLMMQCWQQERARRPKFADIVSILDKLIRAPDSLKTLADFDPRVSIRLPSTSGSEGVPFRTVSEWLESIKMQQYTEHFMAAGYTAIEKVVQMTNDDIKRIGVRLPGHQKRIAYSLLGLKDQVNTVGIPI
- measurement.notes: Yeast growth assay, specificity profiling
- Assay type: cell-based
- Set-up: key: “−” indicates no growth restoration i.e. no activity against the particular kinase; “+”, “++”, and “+++” indicate activity detected by restoration of growth, classified into three categories of potency; “+”, “++”, and “+++” indicate activity detected by restoration of growth, classified into three categories of potency; “+”, “++”, and “+++” indicate activity detected by restoration of growth, classified into three categories of potency
- settings: 7 concentrations between 0.2 and 100 μM
measured.endpoint: EphA2 growth restoration

Guide cases for EphA2 growth restoration, answers given:
CC(C)c1nc2cnccn2c1Nc1cccc(Cl)c1 [compound 12]; +
Cc1nccn2c(Nc3cccc(F)c3)c(-c3ccccc3)nc12 [compound 44]; −
c1ccc(Nc2c(-c3ccccc3)nc3cnccn23)cc1 [compound 23]; +
Nc1ccc(-c2nc3cnccn3c2Nc2cccc(Cl)c2)cc1 [compound 10]; ++
Clc1cccc(Nc2c(-c3ccccc3)nc3cnccn23)c1 [compound 35]; −
CC(=O)Nc1ccc(-c2nc3cnccn3c2Nc2cccc(Cl)c2)cc1 [compound 8]; +
CNc1nccn2c(Nc3cccc(Cl)c3)c(-c3ccccc3)nc12 [compound 20]; −
c1ccc(Nc2c(-c3ccc(N4CCOCC4)cc3)nc3cnccn23)cc1 [compound 38]; +

**Q:** Please state recorded EphA2 growth restoration (tested on EphA2 (Homo sapiens, UniProt P29317)) of COc1cccc(-c2nc3c(C)nccn3c2Nc2cccc(Cl)c2)c1 [compound 48]
**A:** +

---

- system: KIT (Homo sapiens)
- Construct: expressed in transfected cells; host or cells: yeast
- Sequence (P10721 26-976): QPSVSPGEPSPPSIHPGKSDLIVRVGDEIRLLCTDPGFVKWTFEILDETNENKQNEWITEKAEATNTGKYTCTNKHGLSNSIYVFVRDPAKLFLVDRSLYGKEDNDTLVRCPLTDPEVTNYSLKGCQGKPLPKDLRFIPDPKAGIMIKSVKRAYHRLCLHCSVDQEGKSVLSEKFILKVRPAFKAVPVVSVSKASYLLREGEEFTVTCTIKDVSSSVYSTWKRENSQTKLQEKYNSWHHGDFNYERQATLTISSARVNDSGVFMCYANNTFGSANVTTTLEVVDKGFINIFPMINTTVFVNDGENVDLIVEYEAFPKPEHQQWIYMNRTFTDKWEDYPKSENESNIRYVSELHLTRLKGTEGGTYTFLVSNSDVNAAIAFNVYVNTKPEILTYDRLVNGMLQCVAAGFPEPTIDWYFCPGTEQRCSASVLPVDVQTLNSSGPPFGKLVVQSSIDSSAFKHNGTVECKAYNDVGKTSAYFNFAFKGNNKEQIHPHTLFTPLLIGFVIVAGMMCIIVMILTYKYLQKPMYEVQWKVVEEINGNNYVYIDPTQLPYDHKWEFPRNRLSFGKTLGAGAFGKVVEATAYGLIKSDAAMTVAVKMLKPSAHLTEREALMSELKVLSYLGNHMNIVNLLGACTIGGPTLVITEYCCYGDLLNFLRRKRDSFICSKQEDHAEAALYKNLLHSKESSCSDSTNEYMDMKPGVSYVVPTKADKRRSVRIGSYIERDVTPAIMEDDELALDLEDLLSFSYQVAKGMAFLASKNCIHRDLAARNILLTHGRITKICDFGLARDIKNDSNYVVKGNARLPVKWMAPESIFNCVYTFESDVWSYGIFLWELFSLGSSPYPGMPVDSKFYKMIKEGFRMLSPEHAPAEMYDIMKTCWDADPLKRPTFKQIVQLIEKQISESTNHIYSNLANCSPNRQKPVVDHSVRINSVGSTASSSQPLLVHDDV
- measurement.notes: Yeast growth assay, specificity profiling
- Assay type: cell-based
- Set-up: key: “−” indicates no growth restoration i.e. no activity against the particular kinase; “+”, “++”, and “+++” indicate activity detected by restoration of growth, classified into three categories of potency; “+”, “++”, and “+++” indicate activity detected by restoration of growth, classified into three categories of potency; “+”, “++”, and “+++” indicate activity detected by restoration of growth, classified into three categories of potency
- settings: 7 concentrations between 0.2 and 100 μM
measured.endpoint: KIT growth restoration

Guide cases for KIT growth restoration, answers given:
Cc1nccn2c(Nc3cccc(F)c3)c(-c3ccccc3)nc12; −
Cc1cccc(Nc2c(-c3ccccc3)nc3cnccn23)c1; −
Cc1nccn2c(Nc3cccc(Cl)c3)c(-c3ccccc3)nc12; −
Cc1nccn2c(Nc3ccc(F)c(F)c3)c(-c3ccccc3)nc12; −
c1ccc(Nc2c(-c3ccccc3)nc3cnccn23)cc1; −
Brc1cccc(Nc2c(-c3ccccc3)nc3cnccn23)c1; −

**Q:** For Clc1cccc(Nc2c(-c3ccccc3)nc3cnccn23)c1 , what is its reported KIT growth restoration?
**A:** −

**Q:** For Cc1nccn2c(Nc3ccccc3)c(-c3ccccc3)nc12 , what is its reported KIT growth restoration?
**A:** −

**Q:** For COc1cccc(-c2nc3cnccn3c2Nc2cccc(Cl)c2)c1 , what is its reported KIT growth restoration?
**A:** −

**Q:** For Clc1ccc(Nc2c(-c3ccccc3)nc3cnccn23)cc1 , what is its reported KIT growth restoration?
**A:** −

**Q:** For Cc1cccc(Nc2c(-c3ccccc3)nc3c(C)nccn23)c1 , what is its reported KIT growth restoration?
**A:** −

---

- system: EphB4 (Homo sapiens)
- Construct: expressed in transfected cells; host or cells: yeast
- measurement.notes: Yeast growth assay, specificity profiling
- Format: cell-based
- Design: key: “−” indicates no growth restoration i.e. no activity against the particular kinase; “+”, “++”, and “+++” indicate activity detected by restoration of growth, classified into three categories of potency; “+”, “++”, and “+++” indicate activity detected by restoration of growth, classified into three categories of potency; “+”, “++”, and “+++” indicate activity detected by restoration of growth, classified into three categories of potency
- settings: 7 concentrations between 0.2 and 100 μM
measured.endpoint: EphB4 growth restoration

Guide cases for EphB4 growth restoration, answers given:
Fc1ccc(Nc2c(-c3ccccc3)nc3cnccn23)cc1F; ++
Cc1nccn2c(Nc3ccc(F)c(F)c3)c(-c3ccccc3)nc12; +++
CC(C)c1nc2cnccn2c1Nc1cccc(Cl)c1; +
Clc1cccc(Nc2c(-c3ccccc3)nc3cnccn23)c1; +
CC(=O)Nc1ccc(-c2nc3c(C)nccn3c2Nc2cccc(Cl)c2)cc1; +++
Brc1cccc(Nc2c(-c3ccccc3)nc3cnccn23)c1; −

**Q:** For c1ccc(Nc2c(-c3ccc(N4CCOCC4)cc3)nc3cnccn23)cc1 , what is its reported EphB4 growth restoration?
**A:** ++

**Q:** For Fc1cccc(Nc2c(-c3ccccc3)nc3cnccn23)c1 , what is its reported EphB4 growth restoration?
**A:** ++

**Q:** For COc1cccc(-c2nc3c(C)nccn3c2Nc2cccc(Cl)c2)c1 , what is its reported EphB4 growth restoration?
**A:** ++

**Q:** For c1ccc(Nc2c(-c3ccccc3)nc3cnccn23)cc1 , what is its reported EphB4 growth restoration?
**A:** ++

**Q:** For COc1cccc(-c2nc3c(C)nccn3c2Nc2cccc(C)c2)c1 , what is its reported EphB4 growth restoration?
**A:** ++

---

- system: EphB4 (Homo sapiens, UniProt P54760)
- Construct: expressed in transfected cells; host or cells: yeast
- Sequence (P54760 16-987): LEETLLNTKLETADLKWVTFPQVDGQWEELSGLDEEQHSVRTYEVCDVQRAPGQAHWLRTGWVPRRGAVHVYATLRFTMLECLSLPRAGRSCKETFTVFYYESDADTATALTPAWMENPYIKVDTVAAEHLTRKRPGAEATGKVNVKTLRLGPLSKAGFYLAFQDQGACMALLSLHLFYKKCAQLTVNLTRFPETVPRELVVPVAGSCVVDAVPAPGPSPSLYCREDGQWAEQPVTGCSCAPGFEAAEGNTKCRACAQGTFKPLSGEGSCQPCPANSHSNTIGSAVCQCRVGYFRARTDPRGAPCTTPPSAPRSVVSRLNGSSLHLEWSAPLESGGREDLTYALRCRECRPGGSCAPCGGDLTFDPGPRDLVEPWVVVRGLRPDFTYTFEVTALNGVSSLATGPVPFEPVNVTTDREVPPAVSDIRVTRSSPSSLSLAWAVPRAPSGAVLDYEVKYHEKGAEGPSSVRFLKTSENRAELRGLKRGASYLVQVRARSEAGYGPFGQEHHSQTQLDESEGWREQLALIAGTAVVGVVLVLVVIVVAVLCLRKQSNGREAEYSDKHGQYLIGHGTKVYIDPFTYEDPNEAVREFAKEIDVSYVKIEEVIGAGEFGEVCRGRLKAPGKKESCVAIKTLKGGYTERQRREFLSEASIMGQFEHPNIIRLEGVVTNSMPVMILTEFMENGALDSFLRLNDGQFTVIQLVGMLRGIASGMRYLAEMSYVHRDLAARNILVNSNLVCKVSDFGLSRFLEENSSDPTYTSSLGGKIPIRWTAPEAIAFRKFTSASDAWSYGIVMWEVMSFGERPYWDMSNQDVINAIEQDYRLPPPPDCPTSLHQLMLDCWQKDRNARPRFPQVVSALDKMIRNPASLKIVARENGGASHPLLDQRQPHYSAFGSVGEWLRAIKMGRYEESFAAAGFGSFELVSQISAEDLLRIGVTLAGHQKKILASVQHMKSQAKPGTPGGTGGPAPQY
- measurement.notes: Yeast growth assay, specificity profiling
- Format: cell-based
- Parameters: key: “−” indicates no growth restoration i.e. no activity against the particular kinase; “+”, “++”, and “+++” indicate activity detected by restoration of growth, classified into three categories of potency; “+”, “++”, and “+++” indicate activity detected by restoration of growth, classified into three categories of potency; “+”, “++”, and “+++” indicate activity detected by restoration of growth, classified into three categories of potency
- settings: 7 concentrations between 0.2 and 100 μM
measured.endpoint: EphB4 growth restoration

Guide cases for EphB4 growth restoration, answers given:
Cc1cccc(Nc2c(-c3ccccc3)nc3c(C)nccn23)c1 [compound 43]; +++
Cc1nccn2c(Nc3cccc(F)c3)c(-c3ccccc3)nc12 [compound 44]; +++
Cc1nccn2c(Nc3cccc(Cl)c3)c(-c3ccccc3)nc12 [compound 3]; ++
Nc1ccc(-c2nc3cnccn3c2Nc2cccc(Cl)c2)cc1 [compound 10]; +++

Shifting focus to the molecule that follows.
**Q:** For CNc1nccn2c(Nc3cccc(Cl)c3)c(-c3ccccc3)nc12 [compound 20] , what is its reported EphB4 growth restoration?
**A:** −

---

- system: EGFR (L858R) (Homo sapiens, UniProt P00533, L858R)
- Construct: expressed in transfected cells; host or cells: yeast
- measurement.notes: Yeast growth assay, specificity profiling;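 on EGFR (L858R) growth restoration: Parenthesized + marks a result obtained in a different yeast background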
- Assay type: cell-based
- Design: key: (+) in a different yeast background
- settings: in a different yeast background
measured.endpoint: EGFR (L858R) growth restoration

Guide cases for EGFR (L858R) growth restoration, answers given:
CC(C)c1nc2cnccn2c1Nc1cccc(Cl)c1 [compound 12]; (+)
COc1cccc(-c2nc3c(C)nccn3c2Nc2cccc(C)c2)c1 [compound 42]; (+)
COc1cccc(-c2nc3c(C)nccn3c2Nc2cccc(Cl)c2)c1 [compound 48]; (+)
c1ccc(Nc2c(-c3ccc(N4CCOCC4)cc3)nc3cnccn23)cc1 [compound 38]; (+)
CC(=O)Nc1ccc(-c2nc3cnccn3c2Nc2cccc(Cl)c2)cc1 [compound 8]; (+)
CC(=O)Nc1ccc(-c2nc3c(C)nccn3c2Nc2cccc(Cl)c2)cc1 [compound 33]; (+)

**Q:** For Fc1ccc(Nc2c(-c3ccccc3)nc3cnccn23)cc1F [compound 30] , what is its reported EGFR (L858R) growth restoration?
**A:** (+)

**Q:** For Fc1cccc(Nc2c(-c3ccccc3)nc3cnccn23)c1 [compound 26] , what is its reported EGFR (L858R) growth restoration?
**A:** (+)

**Q:** For Nc1ccc(-c2nc3cnccn3c2Nc2cccc(Cl)c2)cc1 [compound 10] , what is its reported EGFR (L858R) growth restoration?
**A:** (+)

---

- system: EGFR (L858R) (Homo sapiens, UniProt P00533, L858R)
- Construct: expressed in transfected cells; host or cells: yeast
- measurement.notes: Yeast growth assay, specificity profiling;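 on EGFR (L858R) growth restoration: Parenthesized + marks a result obtained in a different yeast background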
- Type: cell-based
- Set-up: key: “−” indicates no growth restoration i.e. no activity against the particular kinase; “+”, “++”, and “+++” indicate activity detected by restoration of growth, classified into three categories of potency; “+”, “++”, and “+++” indicate activity detected by restoration of growth, classified into three categories of potency; “+”, “++”, and “+++” indicate activity detected by restoration of growth, classified into three categories of potency
- settings: 7 concentrations between 0.2 and 100 μM
measured.endpoint: EGFR (L858R) growth restoration

Guide cases for EGFR (L858R) growth restoration, answers given:
Clc1ccc(Nc2c(-c3ccccc3)nc3cnccn23)cc1; −
Cc1cccc(Nc2c(-c3ccccc3)nc3c(C)nccn23)c1; −
Cc1nccn2c(Nc3cccc(Cl)c3)c(-c3ccccc3)nc12; +
c1ccc(Nc2c(-c3ccccc3)nc3cnccn23)cc1; +
Clc1cccc(Nc2c(-c3ccccc3)nc3cnccn23)c1; +

**Q:** For Cc1nccn2c(Nc3cccc(F)c3)c(-c3ccccc3)nc12 , what is its reported EGFR (L858R) growth restoration?
**A:** +

**Q:** For COc1cccc(-c2nc3cnccn3c2Nc2cccc(Cl)c2)c1 , what is its reported EGFR (L858R) growth restoration?
**A:** +

**Q:** For Cc1nccn2c(Nc3ccccc3)c(-c3ccccc3)nc12 , what is its reported EGFR (L858R) growth restoration?
**A:** +

**Q:** For Cc1nccn2c(Nc3ccc(F)c(F)c3)c(-c3ccccc3)nc12 , what is its reported EGFR (L858R) growth restoration?
**A:** −

**Q:** For Cc1cccc(Nc2c(-c3ccccc3)nc3cnccn23)c1 , what is its reported EGFR (L858R) growth restoration?
**A:** −

**Q:** For Brc1cccc(Nc2c(-c3ccccc3)nc3cnccn23)c1 , what is its reported EGFR (L858R) growth restoration?
**A:** −
